# Test system: OPM-2 cells
# ASSAY METHOD TEXT: Cell viability assay (OPM-2 cells), CCK-8
# Format: cell-based
# CONDITION CONTEXT: Homo sapiens, OPM-2, 24 h, WST, 5% FBS, read-out: OPM2 (WST, 5% FBS)
# Description: Cell Viability Assay (OPM-2 Cells) OPM-2 cells were obtained from Deutsche Sammlung von Mikroorganismen und Zellkulturen GmbH (DSMZ). […] The effect of representative Compounds of the Disclosure on cell viability was determined using Cell Counting Kit-8 (CCK-8) assay (Shanghai Life iLab Bio Technology) according to the manufacturer's instructions. […] The plates were read at 450 nm on the microplate spectrophotometer (SpectraMax plus 384, Molecular devices). […]
Mark yes for IC50 under 1000 nM, no if at or over.

Cn1nc2cc1CSc1cc(c3ccc(F)cc3c1)OCCCc1c(C(=O)O)n(C)c3c(c(Cl)ccc13)-c1c(nn3c1COCC3)CN(S(=O)(=O)C1CC1)C2 [compound 43]	yes
Cn1nc2cc1CSc1cc(c3ccc(F)cc3c1)OCCCc1c(C(=O)O)n(C)c3c(c(Cl)ccc13)-c1c(nn3c1CCC3)CN(S(C)(=O)=O)C2 [compound 44]	yes
Cn1nc2cc1CSc1cc(c3ccccc3c1)OCCCc1c(C(=O)O)n(C)c3c(c(Cl)ccc13)-c1c(nn3c1CN(S(C)(=O)=O)CC3)CSC2 [compound 25]	no

Does this compound meet the criterion IC50 < 1000 nM? Cn1nc2c(Cl)c1CSc1cc(c3ccccc3c1)OCCCc1c(C(=O)O)n(C)c3c(c(Cl)ccc13)-c1c(nn3c1CCCC3)CSC2 [compound 24]
no

Regarding Cn1c(C(=O)O)c2c3ccc(Cl)c(c31)-c1c(nn3c1CCC3)CSCc1ccc(cn1)CSc1cc(c3ccc(F)cc3c1)OCCC2 [compound 31] , kindly confirm whether its IC50 is beneath 1000 nM.
yes

Is it true that IC50 reported for Cn1nc2nc1CSc1cc(c3ccccc3c1)OCCCc1c(C(=O)O)n(C)c3c(c(Cl)ccc13)-c1c(nn3c1CCC3)CSC2 [compound 13] is less than 1000 nM?
no

Entry source: patent US12319703B2
